- Test system: SK-BR-3
- MEASUREMENT_NOTES: Anticancer activity against human SK-BR-3 cells assessed as growth inhibition at 100 microg/mL by SRB assay relative to control
- Format: functional
- TEST_SETTINGS: read-out: GI
Give inhibition of growth at 100 µg/mL for every item shown.
Give bare numbers, in %.

Solved entries (count: 4):
O=C(/C=C/c1ccc(Oc2ccc(Cl)nn2)cc1)c1ccc(OCc2ccc(Cl)cc2Cl)cc1 ... 60.9
COc1ccc(COc2ccc(C(=O)/C=C/c3ccc(Oc4ccc(Cl)nn4)cc3)cc2)cc1 ... 60.8
CC(=O)Nc1ccc(C(=O)/C=C/c2ccc(Oc3ccc(Cl)nn3)cc2)cc1 ... 71.3
O=C(/C=C/c1ccc(Oc2ccc(Cl)nn2)cc1)c1ccccc1 ... 70.5

Here is another compound to look at.
// assay SK-BR-3, entry "COc1cccc2c1C(=O)c1c(O)c3c(c(O)c1C2=O)C[C@@](O)(C(=O)CO)C[C@@H]3O[C@H]1C[C@H](N)[C@H](O)[C@H](C)O1" , inhibition of growth at 100 µg/mL value = 71.1

###

- MEASUREMENT_NOTES: Cytotoxicity against human HSF (VGS) cells assessed as growth inhibition at 100 microg/mL by SRB assay relative to control
- Assay type: toxicity, cell-based
- TEST_SETTINGS: at 100 µg/mL, read-out: GI
QUANTITY_KIND: inhibition at 100 microg/mL (%)
Answers are plain numbers, in %.

Take a look at these entries with their results.
Nc1ccc(C(=O)/C=C/c2ccc(Oc3ccc(Cl)nn3)cc2)cc1 ... 68.1
CC(=O)Nc1ccc(C(=O)/C=C/c2ccc(Oc3ccc(Cl)nn3)cc2)cc1 ... 70.2
O=C(/C=C/c1ccc(Oc2ccc(Cl)nn2)cc1)c1ccc([N+](=O)[O-])cc1 ... 65.6
O=C(/C=C/c1ccc(Oc2ccc(Cl)nn2)cc1)c1ccc(OCc2ccc(Cl)cc2Cl)cc1 ... 50.7
O=C(/C=C/c1ccc(Oc2ccc(Cl)nn2)cc1)c1ccc(OCc2ccccc2)cc1 ... 67.8

Could I get inhibition at 100 microg/mL for every one of these entries?
1. COc1cccc2c1C(=O)c1c(O)c3c(c(O)c1C2=O)C[C@@](O)(C(=O)CO)C[C@@H]3O[C@H]1C[C@H](N)[C@H](O)[C@H](C)O1
2. COc1ccc(C(=O)/C=C/c2ccc(Oc3ccc(Cl)nn3)cc2)cc1
3. O=C1NC(=O)/C(=C\c2ccc(Oc3ccc(Cl)nn3)cc2)S1
4. CC(=O)Nc1cccc(C(=O)/C=C/c2ccc(Oc3ccc(Cl)nn3)cc2)c1
5. O=C(/C=C/c1ccc(Oc2ccc(Cl)nn2)cc1)c1ccc(O)cc1
6. Cc1ccc(C(=O)/C=C/c2ccc(Oc3ccc(Cl)nn3)cc2)cc1

Result:
[52.9, 53.5, 56.9, 70, 61, 67.8]

###

- TESTED_TARGET: Poly [ADP-ribose] polymerase 1 (Homo sapiens, UniProt P09874)
- Sequence (P09874 whole entry): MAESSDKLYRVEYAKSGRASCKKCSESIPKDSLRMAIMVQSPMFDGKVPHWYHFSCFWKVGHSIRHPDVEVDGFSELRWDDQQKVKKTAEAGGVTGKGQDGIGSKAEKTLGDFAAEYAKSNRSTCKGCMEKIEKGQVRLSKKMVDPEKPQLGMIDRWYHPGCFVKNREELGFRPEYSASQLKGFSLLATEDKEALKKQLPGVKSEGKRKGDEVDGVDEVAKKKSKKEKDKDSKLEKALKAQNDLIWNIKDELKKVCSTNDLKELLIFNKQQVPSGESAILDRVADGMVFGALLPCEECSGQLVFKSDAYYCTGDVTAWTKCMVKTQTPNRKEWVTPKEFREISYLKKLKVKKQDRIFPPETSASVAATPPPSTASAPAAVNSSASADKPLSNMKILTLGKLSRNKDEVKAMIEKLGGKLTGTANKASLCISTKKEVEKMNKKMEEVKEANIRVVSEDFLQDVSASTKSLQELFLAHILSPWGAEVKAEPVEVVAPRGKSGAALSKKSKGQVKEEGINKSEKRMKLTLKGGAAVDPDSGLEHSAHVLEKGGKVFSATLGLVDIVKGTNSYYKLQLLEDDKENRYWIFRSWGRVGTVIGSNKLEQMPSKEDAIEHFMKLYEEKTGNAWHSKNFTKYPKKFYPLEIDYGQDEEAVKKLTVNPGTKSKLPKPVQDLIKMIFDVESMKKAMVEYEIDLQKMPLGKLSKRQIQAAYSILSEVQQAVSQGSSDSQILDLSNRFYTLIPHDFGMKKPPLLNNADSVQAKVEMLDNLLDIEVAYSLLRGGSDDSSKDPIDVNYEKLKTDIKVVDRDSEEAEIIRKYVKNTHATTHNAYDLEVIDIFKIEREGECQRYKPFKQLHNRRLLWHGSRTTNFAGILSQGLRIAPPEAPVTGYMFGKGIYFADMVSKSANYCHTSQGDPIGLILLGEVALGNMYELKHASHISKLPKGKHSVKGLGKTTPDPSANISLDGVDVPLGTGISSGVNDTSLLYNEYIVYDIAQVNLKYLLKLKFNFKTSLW
QUANTITY_KIND: pIC50
One number for each entry, as −log10 of the molar value.

COc1cc(O)ccc1C(=O)/C=C/c1ccc(O)cc1 ... 5.72

pIC50 in this record for "CC1(COc2ccc(/C=C3/SC(O)=NC3=O)cc2)CCCCC1" : 4.60

###

- Test system: FaDu
- MEASUREMENT_NOTES: Anticancer activity against human FaDu cells assessed as growth inhibition at 100 microg/mL by SRB assay relative to control
- Type: functional
- TEST_SETTINGS: read-out: GI
QUANTITY_KIND: inhibition of growth at 100 µg/mL (%)
One number for each entry, in %.

Answered examples (2):
O=C(/C=C/c1ccc(Oc2ccc(Cl)nn2)cc1)c1ccccc1 ... 80.9
O=C(/C=C/c1ccc(Oc2ccc(Cl)nn2)cc1)c1ccc(OCc2ccc(Cl)cc2Cl)cc1 ... 81.6

Recorded result, "Cc1ccc(C(=O)/C=C/c2ccc(Oc3ccc(Cl)nn3)cc2)cc1" , inhibition of growth at 100 µg/mL: 80.2

###

- MEASUREMENT_NOTES: Cytotoxicity against human HSF (VGS) cells assessed as growth inhibition at 100 microg/mL by SRB assay relative to control
- Type: toxicity, cell-based
- TEST_SETTINGS: at 100 µg/mL, read-out: GI
QUANTITY_KIND: inhibition at 100 microg/mL (%)
One number for each entry, in %.

Quick batch: inhibition at 100 microg/mL for everything below.
1. O=C(/C=C/c1ccc(Oc2ccc(Cl)nn2)cc1)c1ccccc1
2. O=C(/C=C/c1ccc(Oc2ccc(Cl)nn2)cc1)c1ccc(OCc2ccc(OC(F)(F)F)cc2)cc1
3. COc1ccc(COc2ccc(C(=O)/C=C/c3ccc(Oc4ccc(Cl)nn4)cc3)cc2)cc1
4. O=C(/C=C/c1ccc(Oc2ccc(Cl)nn2)cc1)c1ccc(OCc2ccc(F)c(Cl)c2)cc1

Result:
[52.2, 49.4, 53.5, 54]
